# Kd per entry
system_name: Human c-Kit (BLI analyte) (human, UniProt P10721 26-520, limits assumed)
Sequence (P10721 26-520 limits assumed): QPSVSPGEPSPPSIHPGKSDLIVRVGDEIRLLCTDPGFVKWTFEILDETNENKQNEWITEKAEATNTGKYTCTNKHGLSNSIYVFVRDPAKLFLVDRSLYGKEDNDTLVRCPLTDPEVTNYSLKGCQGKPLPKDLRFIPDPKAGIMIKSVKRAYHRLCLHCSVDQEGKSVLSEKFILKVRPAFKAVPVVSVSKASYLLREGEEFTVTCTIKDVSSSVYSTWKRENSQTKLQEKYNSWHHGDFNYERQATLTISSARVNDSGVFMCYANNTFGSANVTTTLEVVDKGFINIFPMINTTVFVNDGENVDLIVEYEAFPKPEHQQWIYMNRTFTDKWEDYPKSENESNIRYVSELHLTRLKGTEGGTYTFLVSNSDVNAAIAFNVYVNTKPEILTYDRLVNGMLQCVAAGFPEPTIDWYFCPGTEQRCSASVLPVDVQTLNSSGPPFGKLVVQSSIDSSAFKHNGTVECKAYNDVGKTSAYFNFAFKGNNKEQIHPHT
experiment_description: BLI (Octet), antibody on capture sensor

binder: hSR1-3 (antibody, human IgG1, kappa, V domains shown, also called humanized SR1-3; hSR1-H2b / hSR1-L2) VH: QVQLVQSGAEVKKPGASVKVSCKASGYTFTSYNMHWVRQAPGQGLEWMGVIYSGNGDTSYAQKFQGRVTMTADKSTSTAYMELSSLRSEDTAVYYCARERDTRFGNWGQGTLVTVSS VL: DIQLTQSPSSLSASVGDRATITCRASESVDIYGNSFMHWYQQKPGKAPKLLIYLASNLESGVPSRFSGSGSGTDFTLTISSVQPEDFATYYCQQNNEDPYTFGQGTKLEIKR
result_units: pM
Kd: 256
//
binder: hSR1-2 (antibody, human IgG1, kappa, V domains shown, also called humanized SR1-2; hSR1-H3 / hSR1-L2) VH: QVQLVQSGAEVKKPGASVKMSCKASGYTFTSYNMHWVRQAPGQGLEWIGVIYSGNGDTSYAQKFQGRATLTADTSTSTAYMELSSLRSEDTAVYYCARERDTRFGNWGQGTLVTVSS VL: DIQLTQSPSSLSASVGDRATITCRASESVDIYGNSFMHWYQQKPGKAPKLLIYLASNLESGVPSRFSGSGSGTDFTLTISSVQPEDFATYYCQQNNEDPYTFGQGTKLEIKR
result_units: pM
Kd: 245
//
binder: hSR1-5 (antibody, human IgG1, kappa, V domains shown, also called humanized SR1-5; hSR1-H2 / hSR1-L2r) VH: QVQLVQSGAEVKKPGASVKVSCKASGYTFTSYNMHWVRQAPGQGLEWMGVIYSGNGDTSYAQKFQGRVTMTADTSTSTAYMELSSLRSEDTAVYYCARERDTRFGNWGQGTLVTVSS VL: DIQLTQSPSSLSASVGDRATITCRASESVDIYGNSFMHWYQQKPGKAPKLLIYLASNLESGVPSRFSGSGSRTDFTLTISSVQPEDFATYYCQQNNEDPYTFGQGTKLEIKR
result_units: pM
Kd: 256
//
binder: hSR1-6 (antibody, human IgG1, kappa, V domains shown, also called humanized SR1-6; hSR1-H3 / hSR1-L2r) VH: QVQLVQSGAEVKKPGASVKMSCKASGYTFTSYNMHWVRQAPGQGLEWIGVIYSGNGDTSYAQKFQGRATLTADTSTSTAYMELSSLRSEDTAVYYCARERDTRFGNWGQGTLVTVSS VL: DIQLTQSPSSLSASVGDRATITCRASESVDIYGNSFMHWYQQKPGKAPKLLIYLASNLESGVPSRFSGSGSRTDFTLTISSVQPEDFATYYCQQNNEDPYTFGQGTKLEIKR
result_units: pM
Kd: 247
//
binder: hSR1-1 (antibody, human IgG1, kappa, V domains shown, Humanized anti-c-Kit antibody; also called humanized SR1-1; hSR1-H2 / hSR1-L2) VH: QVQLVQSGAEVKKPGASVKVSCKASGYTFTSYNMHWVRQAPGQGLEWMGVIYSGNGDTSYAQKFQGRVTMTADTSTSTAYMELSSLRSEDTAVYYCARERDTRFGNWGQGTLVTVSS VL: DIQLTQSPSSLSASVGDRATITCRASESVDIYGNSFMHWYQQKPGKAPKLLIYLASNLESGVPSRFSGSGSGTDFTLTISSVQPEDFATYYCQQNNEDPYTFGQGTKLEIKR
result_units: pM
Kd: 199
//
binder: hSR1-4 (antibody, human IgG1, kappa, V domains shown, also called humanized SR1-4; hSR1-H3b / hSR1-L2) VH: QVQLVQSGAEVKKPGASVKMSCKASGYTFTSYNMHWVRQAPGQGLEWIGVIYSGNGDTSYAQKFQGRATLTADKSTSTAYMELSSLRSEDTAVYYCARERDTRFGNWGQGTLVTVSS VL: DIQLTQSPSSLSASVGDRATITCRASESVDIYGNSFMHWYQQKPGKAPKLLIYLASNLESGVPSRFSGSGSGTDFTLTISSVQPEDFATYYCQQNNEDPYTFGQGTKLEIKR
result_units: pM
Kd: 386
